Property: GI50; scope: individual compounds
- Test system: NCI/ADR-RES
- ASSAY_REMARKS: Growth inhibition of human NCI/ADR-RES cells after 48 hrs by SRB assay
- Assay type: functional
MEASURED_ENDPOINT: GI50 (nM)

INSERT INTO measurements (smiles_code, unit, obs_value) VALUES
  ('Cc1ccc(NC(=O)/C=C/c2ccccc2)c(C(N)=O)c1', 'nM', 2790),
  ('NC(=O)c1cc(Br)ccc1NC(=O)/C=C/c1ccccc1', 'nM', 400),
  ('NC(=O)c1cc(Cl)ccc1NC(=O)/C=C/c1ccccc1', 'nM', 2240),
  ('NC(=O)c1cc(I)ccc1NC(=O)/C=C/c1ccccc1Cl', 'nM', 719);
